tested on: c-HaRas protein; test: Ras GTPase stimulating activity: hydrolysis of [gamma-32P] GTP bound to c-HaRas protein, by GST fusion NF1 mutants; type: biochemical, murine; conditions: 20 ug/ml NF1 mutants; 25° C., 20 minutes
measured.property: Activation (fold), Ras GTPase activation
Field format: number, assumed fold, no unit text.

Return reported Activation (fold), Ras GTPase activation; argument: NF78: NF1 fragment, amino acid residues 1441 to 1518 (protein) RPFNDFVKSNFDAARRFFLDIASDCPTSDAVNHSLSFISDGNVLALHRLLWNNQEKIGQYLSSNRDHKAVGRRPFDKM
6
